Tested on: human PKK mRNA
protocol text: Antisense inhibition of human PKK mRNA in HepaRG cells, 1,000 nM, MOE/deoxy/cEt oligonucleotides (Example 3)
Assay type: cell-based
study conditions: Table 28; HepaRG cells, 1,000 nM antisense oligonucleotide; human PKK mRNA
Strand notation (5' to 3'): a small letter for the sugar, then the base; units joined by * are phosphorothioate-linked, units joined directly phosphodiester-linked; [ ] holds rarer units or linkages, { } end groups; capitals alone tell only the bases. e = 2'-O-(2-methoxyethyl) (MOE); k = constrained ethyl (cEt); [5mC] = 5-methylcytosine; d = 2'-deoxy (DNA)
// % inhibition lookup, one value per entry
Quick note: give the figure in %, leave out the unit.

INSERT INTO measurements (substance, unit_descriptor, readout_value) VALUES
  ('548477 (eG*e[5mC]*kA*d[5mC]*dG*dA*dG*d[5mC]*dT*dT*dG*d[5mC]*d[5mC]*kT*kG*eT; antisense) [compound 548477]', '%', 26);

Query: Look up % inhibition for this substance: 548490 (antisense eT*e[5mC]*kT*dG*dG*dT*dT*dA*dG*d[5mC]*d[5mC]*dT*d[5mC]*k[5mC]*kG*eA) [compound 548490]
Response: 58

Query: Tell me the measured % inhibition of 548460 (e[5mC]*eT*kA*dT*dA*d[5mC]*d[5mC]*dA*d[5mC]*dG*dG*dT*dA*kA*k[5mC]*eT; antisense) [compound 548460] , please.
Response: 0

###

Tested on: human PKK mRNA
protocol text: Antisense inhibition of human PKK mRNA in HepaRG cells, 3,000 nM (Example 1)
Format: cell-based
study conditions: Table 2; PKK mRNA, HepaRG cells, 3,000 nM, electroporation, ~24 h, relative to untreated control cells
Strand notation (5' to 3'): a small letter for the sugar, then the base; units joined by * are phosphorothioate-linked, units joined directly phosphodiester-linked; [ ] holds rarer units or linkages, { } end groups; capitals alone tell only the bases. e = 2'-O-(2-methoxyethyl) (MOE); [5mC] = 5-methylcytosine; d = 2'-deoxy (DNA)
readout label: % inhibition (%)
Give just the numeric value; % need not be written.

Examples with their reported % inhibition follow.
INSERT INTO results (substance, readout_label, unit_descriptor, readout_value) VALUES
  ('531072 (eG*e[5mC]*eT*e[5mC]*eA*dG*dA*dA*dT*dT*dT*dG*dA*d[5mC]*dT*eT*eG*eA*eA*e[5mC]; antisense) [compound 531072]', '% inhibition', '%', 64),
  ('531054 (antisense e[5mC]*eT*eT*eT*eA*dT*dA*dG*d[5mC]*d[5mC]*dA*dG*d[5mC]*dA*d[5mC]*eA*eG*eA*e[5mC]*e[5mC]) [compound 531054]', '% inhibition', '%', 48),
  ('531031 (antisense eT*eT*eT*eG*eG*dA*dA*dT*dT*d[5mC]*dA*dG*dT*dG*dT*eA*eA*eT*eT*e[5mC]) [compound 531031]', '% inhibition', '%', 59);

Query: Give its % inhibition value. Item: 531075 (e[5mC]*e[5mC]*eA*eT*eG*d[5mC]*dT*dT*dT*dG*d[5mC]*dA*dG*dA*dT*eG*eA*eG*eG*eA; antisense) [compound 531075]
Response: 64

Query: Request the reported % inhibition associated with 531012 (eT*e[5mC]*eT*e[5mC]*e[5mC]*d[5mC]*d[5mC]*dA*dA*dG*dA*dA*dG*dA*dG*eT*eT*eT*eG*eT; antisense) [compound 531012]
Response: 48

Query: I would be grateful if you could share the reported % inhibition for 531037 (antisense eA*eA*e[5mC]*eA*eG*dT*dT*dG*dG*dT*dA*dT*dA*dA*dA*eT*eT*eG*eT*eG) [compound 531037] .
Response: 35

Query: Name the recorded % inhibition for 531014 (eA*eG*e[5mC]*eT*eT*d[5mC]*dA*d[5mC]*d[5mC]*dT*dG*d[5mC]*dA*dG*dG*e[5mC]*eT*e[5mC]*eA*e[5mC]; antisense) [compound 531014] .
Response: 0

Query: Returns the measured % inhibition for the input substance. Input: 531071 (e[5mC]*eT*eG*e[5mC]*eT*d[5mC]*dT*dG*dT*dG*dT*dT*dT*dT*d[5mC]*eT*e[5mC]*eT*eA*eA; antisense) [compound 531071]
Response: 73

Source of measurements: patent US11840686B2
